Source listed as PubChem BioAssay.

Assay: small-molecule binders of probe aNOTCH2, primary screen, biochemical, small-molecule microarray, 635/667 nm fluorescence (AID 1121);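 further: score merges feature fluorescence read at 667 nm with its signal to noise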
Conditions: higher = more signal
reported metric: composite z-score

molecule=CO[C@@H]1COC(=O)CC=C[C@@H](C)[C@@H]2C=C[C@H](O)[C@@H](COC(=O)[C@H](C)NC(=O)CC=C[C@H]1C)O2 test_result=-0.164
molecule=C#CCCCON=C1C[C@@H](O)[C@@H](O)[C@@H]2[C@@H]3C(=O)N(CCC(=O)OCC)C(=O)[C@@H]3CC[C@@H]12 test_result=-0.0404
molecule=CC(C)=NOCc1cccc(-c2cc(-c3ccccc3)no2)c1 test_result=-0.203
molecule=CC(C)C[C@@H]1NC(=O)[C@H]2C[C@@H](C(=O)NCCCCCCN(C)C)[C@@H](c3cccc(OCCO)c3)N2C1=O test_result=-0.153
molecule=COc1ccc(O[C@@H]2[C@H](O)CO[C@H]2C=CC#Cc2ccccc2)cc1 test_result=-0.171
molecule=CC(C)=CCCC(C)=CCON=C1[C@H]2CCn3c(=O)n(Cc4cc5c(cc4Cl)OCO5)c(=O)n3[C@H]2[C@H](O)[C@@H]2O[C@H]12 test_result=-0.131
molecule=COc1ccc(O[C@H]2C=C[C@@H](c3ccccc3)O[C@@H]2COC(=O)N2CCCCC2)cc1 test_result=-0.111
molecule=CCOC(=O)NN=C1C[C@@H](O)[C@@H](O)[C@@H]2[C@@H]3C(=O)N(C4CCCCC4)C(=O)[C@@H]3CC[C@H]12 test_result=-0.037
molecule=CC(=O)OC[C@H]1O[C@H](CCON=C[C@@H](C)[C@H](OCc2ccccc2)C(C)C)C=C[C@@H]1OC(C)=O test_result=-0.0716
molecule=COc1ccc(O[C@H]2C=C[C@@H](c3ccccc3)O[C@@H]2COC(=O)CCC(C)=NOCC[C@@H]2C=C[C@H](OC(C)=O)[C@@H](COC(C)=O)O2)cc1 test_result=-0.0028
molecule=CC(C)(C)N1C(=O)[C@H]2[C@H]3[C@H](O)[C@H](O)CC(=NO[C@@H]4O[C@H](CO)[C@@H](O)[C@H](O)[C@H]4O)[C@@H]3CC[C@H]2C1=O test_result=-0.154
molecule="CCN(CC)c1ccc(N2CC=CC34O[C@@H]5/C=C\\CCC(C)OC(=O)C5[C@H]3C(=O)N(CCCO)[C@@H]4C2=O)cc1 (stereo not given in full)" test_result=-0.189
molecule=C=C(/C(=C/C[C@@H](OC(=O)c1ccncc1)c1ccc(OCCO)cc1)c1cnc2ccccc2c1)C(C)C test_result=-0.134
molecule=[N-]=[N+]=NCc1ccccc1C[C@]1(C(=O)NCc2ccccc2)N=C(c2ccc(OCCCO)cc2)O[C@H]1c1ccccc1N=[N+]=[N-] test_result=-0.098
molecule="COC(=O)CC1OC1[C@H](C)[C@@H](OC)C(C)C (stereo not given in full)" test_result=-0.124

----------
Quick reference: composite z-score of the listed items.
System: Human papillomavirus type 1a E7 protein (residues 1-88)
Assay: HPV1a E7 small-molecule binders, primary screen, biochemical, small-molecule microarray, residues 1-88, 635 nm (AID 1129)
Conditions: small-molecule microarray binding, fluorescence 635 nm; higher = more signal
reported metric: composite z-score

compound=COCCCNC(=O)[C@@]1(CCS(=O)(=O)c2ccccc2)N=C(c2ccc(OCCCO)cc2)O[C@H]1c1ccccc1 test_result=1.25
compound="COC(=O)[C@H](C)NC(=O)CCC1CC(OC(=O)NCCc2ccc(F)cc2)CC2(CCCC(COC(=O)NCCc3ccc(Cl)cc3)O2)O1 (stereo not given in full)" test_result=0.966
compound=C=CC[C@@H]1C=C[C@H](ON=C(C)CCN2CCc3nc(CC)c(CC)cc3C2)[C@@H](CO)O1 test_result=-0.202
compound=CC(C)=CCCC(C)=CCON=C1[C@H]2CCn3c(=O)n(C)c(=O)n3[C@H]2[C@H](O)[C@@H]2O[C@H]12 test_result=0.968
compound=CO[C@H]1O[C@H](CO)[C@@H](OC(=O)Nc2ccc(C#N)cc2)[C@H](OC(=O)c2cc3ccccc3[nH]2)[C@H]1OC(=O)c1cc2ccccc2[nH]1 test_result=1.18
compound=CC(C)(C)N1C(=O)[C@H]2[C@H]3[C@H](O)[C@H](O)CC(=NO[C@@H]4O[C@H](CO)[C@@H](O)[C@H](O)[C@H]4O)[C@@H]3CC[C@H]2C1=O test_result=1.08
compound=COC(=O)CC=C[C@@H](C)[C@@H](C=NO[C@H](C)c1cn([C@@H]2COC[C@H]2O)nn1)OC test_result=0.695
compound=CO[C@@H]1COC(=O)CC=C[C@@H](C)COC(=O)[C@H](COCc2ccccc2)NC(=O)CC=C[C@H]1C test_result=-1.04
compound=CC(C)CN1CCc2nc(-c3ccccc3)c3c(c2CC1)CO[C@@H](C)C3 test_result=0.103
compound="COC(=O)[C@H](C)NC(=O)CCC1CC(OC(=O)NCc2cccc3ccccc23)CC2(CCCC(COC(=O)NCCc3ccc(Cl)cc3)O2)O1 (stereo not given in full)" test_result=1.06
compound=C[C@@H]1C=CCC(=O)OC[C@H](C)C(=O)OC[C@H]2O[C@H]1C=C[C@H]2O test_result=-0.307
compound=Cc1ccc(S(=O)(=O)N[C@@H]2COC(=O)[C@H](C)COC(=O)CC=C[C@H]2C)cc1 test_result=-0.0268
compound=CO[C@@H]1COC(=O)[C@@H]2CCCN2C(=O)[C@@H](C)COC(=O)[C@H](COCc2ccccc2)NC(=O)CC=C[C@H]1C test_result=0.692
compound=CCOC(=O)CCN1C(=O)[C@H]2[C@H]3[C@H](O)[C@H](O)CC(=NOC[C@@H](O)COCc4ccco4)[C@H]3CC[C@H]2C1=O test_result=0.785
compound=COC(=O)[C@@H]1CC[C@H](C)[C@@H](c2ccc(C)cc2)N1C(=O)c1ccc(C=NOC[C@@H](O)COCc2ccco2)cc1 test_result=-1.79
